System: EKVX NSCLC
Assay: NCI-60 one-dose screen, 48 h
Conditions: 10 µM unless noted
This is part of a sample that, as a whole, favours compounds with a hit. Of some 83,000 tested, about 20% had one in any assay. The source made the active and inactive calls. How the source made its calls: active means growth percent below 10; inactive means the rest.
Labels: True (active), False (inactive)

>  <compound>
CCCCOc1ccc(/C=N/Nc2cc(C)nc3ccc(Cl)cc23)cc1

>  <test target>
EKVX NSCLC

>  <answer label>
False

$$$$
>  <compound>
COc1ccccc1Nc1cc(O)c2c(=O)cc(-c3ccccc3)oc2c1

>  <test target>
EKVX NSCLC

>  <answer label>
False

$$$$
>  <compound>
CCCCc1ccc(Nc2nnc(SCC(=O)NC(=O)NCC)s2)cc1

>  <test target>
EKVX NSCLC

>  <answer label>
False

$$$$
>  <compound>
CN(C)C(=O)OCc1nc2c(N3CCOCC3)nc(-c3ccccc3)nc2n1C

>  <test target>
EKVX NSCLC

>  <answer label>
True

$$$$
>  <compound>
CC(=O)CCSc1ccc(OC(C)=O)cc1

>  <test target>
EKVX NSCLC

>  <answer label>
False

$$$$
>  <compound>
COc1ccc(Nc2nc(N)nc3c2CCc2occc2-3)cc1

>  <test target>
EKVX NSCLC

>  <answer label>
False

$$$$
>  <compound>
COc1ccc(-c2c[nH]c(C(=O)O)c2-c2cc(OC)c3c(c2OC)OCO3)cc1

>  <test target>
EKVX NSCLC

>  <answer label>
False

$$$$
>  <compound>
COc1ccc(CNC(=O)COc2ccc(/C=N/Nc3nc4ccccc4s3)cc2)cc1

>  <test target>
EKVX NSCLC

>  <answer label>
False

$$$$
>  <compound>
COc1ccc(/C=N/C2=C(C#N)C(c3ccccc3[N+](=O)[O-])c3ccc4ccccc4c3O2)cc1 (configuration not stated)

>  <test target>
EKVX NSCLC

>  <answer label>
False

$$$$
>  <compound>
COc1cc(C2CC(c3cccc(Nc4ccncc4)c3)=NN2c2cc(Cl)cc(Cl)c2)cc(OC)c1OC (configuration not stated)

>  <test target>
EKVX NSCLC

>  <answer label>
False

$$$$
>  <compound>
CCC(C)N(CCNc1cc(OC)cc2cccnc12)CCC(C)C (configuration not stated)

>  <test target>
EKVX NSCLC

>  <answer label>
False

$$$$
>  <compound>
N#Cc1c(Nc2ccccc2)nn2cc(-c3nc4ccccc4s3)c(N)nc12

>  <test target>
EKVX NSCLC

>  <answer label>
False

$$$$
>  <compound>
c1ccc(Cn2nc3c(c2-c2ccccc2)-c2oncc2CC3)cc1

>  <test target>
EKVX NSCLC

>  <answer label>
False

$$$$
>  <compound>
O=C1CCCCCCCCC(O)C(O)CCCC(c2cccs2)O1 (configuration not stated)

>  <test target>
EKVX NSCLC

>  <answer label>
False

$$$$
>  <compound>
CC(=O)N1c2ccccc2NC2=C(C(=O)N(Cc3ccccc3)C2(C)C)C1c1ccco1 (configuration not stated)

>  <test target>
EKVX NSCLC

>  <answer label>
False

$$$$
>  <compound>
NC(=O)c1ncn(C2OC(CO)C(O)C2O)n1 (configuration not stated)

>  <test target>
EKVX NSCLC

>  <answer label>
False

$$$$
>  <compound>
Clc1cc(Cl)cc(N2N=C(c3cccc(Nc4ccncc4)c3)CC2c2ccc3c(c2)OCO3)c1 (configuration not stated)

>  <test target>
EKVX NSCLC

>  <answer label>
False

$$$$
>  <compound>
CCCCCCOc1ccc(/C=N/Nc2cc(C)nc3ccc(Br)cc23)cc1

>  <test target>
EKVX NSCLC

>  <answer label>
True

$$$$
>  <compound>
O=C(N/N=C/c1ccc(O)c(O)c1)c1sc2ccccc2c1Cl

>  <test target>
EKVX NSCLC

>  <answer label>
False

$$$$
>  <compound>
C#Cc1cccc(NC(=O)Nc2cccc(N=C=S)c2)c1

>  <test target>
EKVX NSCLC

>  <answer label>
False

$$$$
>  <compound>
CCCCCCCCOC(=O)c1ccc(O)c(OC)c1

>  <test target>
EKVX NSCLC

>  <answer label>
False

$$$$
>  <compound>
S=c1[nH]cccc1-c1nnc2n1Nc1nc3ccccc3cc1CS2

>  <test target>
EKVX NSCLC

>  <answer label>
False

$$$$

----------
System: SK-MEL-2 melanoma
Test: NCI-60 one-dose screen, 48 h (100 = growth as untreated, 0 = no growth, -100 = all killed)
Details: 10 µM unless noted
About 83,000 compounds went through this panel and 20% of them were active in at least one assay; those are over-represented in the sample as a whole.
Overview of reported growth across a group of molecules:

>  <molecule>
Nc1ncc(C#Cc2cncc(NC(=O)c3cccc(C(F)(F)F)c3)c2)c2cccnc12

>  <growth, %>
5.81

$$$$
>  <molecule>
COc1cc(C2CC(c3cccc(Nc4ccncc4)c3)=NN2c2ccc(Cl)cc2)cc(OC)c1OC (centres undefined)

>  <growth, %>
55.8

$$$$
>  <molecule>
CN1CCN(C(=O)[C@]2(C)CC[C@]3(C)CC[C@]4(C)C(=CC(=O)[C@@H]5[C@@]6(C)CCC(=O)NC(C)(C)[C@@H]6CC[C@]54C)[C@@H]3C2)CC1

>  <growth, %>
100

$$$$
>  <molecule>
COc1ccc(C(=O)c2cc(C)c(OC)c(C)c2)c(OC)c1N(C(=O)C(Cl)Cl)C(=O)C(Cl)Cl

>  <growth, %>
27.2

$$$$

----------
Overview of reported growth across a group of compounds:
System: SNB-19 CNS
Test: NCI-60 one-dose screen, 48 h (100 = growth as untreated, 0 = no growth, -100 = all killed)
Conditions: 10 µM unless noted
Compounds without any hit were thinned out: in the full panel of roughly 83,000, 20% have a hit.

>  <compound>
C[C@]12CCc3nc(Nc4cccc(O)c4)sc3C1=CC[C@@H]1[C@@H]2CC[C@]2(C)/C(=N\NC(N)=S)CC[C@@H]12

>  <test target>
SNB-19 CNS

>  <scale unit>
%

>  <growth>
57.9

$$$$
>  <compound>
N/C(=N\N=C\c1cc2ccccc2s1)N/N=C/c1cc2ccccc2s1

>  <test target>
SNB-19 CNS

>  <scale unit>
%

>  <growth>
97

$$$$
>  <compound>
CN1C(=O)N(C)[C@H]2NC(NN)=N[C@H]21

>  <test target>
SNB-19 CNS

>  <scale unit>
%

>  <growth>
106

$$$$
>  <compound>
COc1ccc(Cc2nc3cc(OC)c(OC)cc3c(=O)[nH]2)cc1

>  <test target>
SNB-19 CNS

>  <scale unit>
%

>  <growth>
81.7

$$$$
>  <compound>
C=C(C)[C@@H]1CC[C@]2(C(=O)NCCCN(CCC#N)CCC#N)CC[C@]3(C)[C@H](CC[C@@H]4[C@@]5(C)CCC(=O)C(C)(C)[C@@H]5CC[C@]43C)[C@@H]12

>  <test target>
SNB-19 CNS

>  <scale unit>
%

>  <growth>
98.9

$$$$

----------
System: SK-MEL-28 melanoma
Assay: NCI-60 one-dose screen, 48 h (100 = growth as untreated, 0 = no growth, -100 = all killed)
Conditions: 10 µM unless noted
About 83,000 compounds went through this panel and 20% of them were active in at least one assay; those are over-represented in the sample as a whole.

>  <molecule>
N#C/C(=C\c1ccc(Br)cc1)n1nnc2cccc(F)c21

>  <test target>
SK-MEL-28 melanoma

>  <growth [%]>
49.5

$$$$
>  <molecule>
CC(=O)Nc1ccc(C(=O)Nc2cc(-c3ccccc3)ccc2N)cc1

>  <test target>
SK-MEL-28 melanoma

>  <growth [%]>
56.6

$$$$
>  <molecule>
NS(=O)(=O)c1cccc(NC(=O)C(=O)C2C(=O)Nc3ccccc32)c1 (stereo not given)

>  <test target>
SK-MEL-28 melanoma

>  <growth [%]>
107

$$$$
>  <molecule>
CCCCc1ccc(Nc2nnc(SCC(=O)NC(=O)NCC)s2)cc1

>  <test target>
SK-MEL-28 melanoma

>  <growth [%]>
105

$$$$
>  <molecule>
COc1ccc2c(/C=C3/C(=O)NC(=S)NC3C)cc(=O)oc2c1 (stereo not given)

>  <test target>
SK-MEL-28 melanoma

>  <growth [%]>
109

$$$$
>  <molecule>
O=C(/C=C\c1ccc(OCCCCCC[P+](c2ccccc2)(c2ccccc2)c2ccccc2)cc1)c1ccc2c(c1)OCCO2

>  <test target>
SK-MEL-28 melanoma

>  <growth [%]>
-0.666

$$$$
>  <molecule>
N#Cc1c(Nc2ccccc2)nn2cc(-c3nc4ccccc4s3)c(N)nc12

>  <test target>
SK-MEL-28 melanoma

>  <growth [%]>
68.7

$$$$
>  <molecule>
CCN(CC)S(=O)(=O)c1cccc([N+](=O)[O-])c1

>  <test target>
SK-MEL-28 melanoma

>  <growth [%]>
108

$$$$
>  <molecule>
CC1(C)CN(Cc2ccccc2)CCN1Cc1ccccc1

>  <test target>
SK-MEL-28 melanoma

>  <growth [%]>
111

$$$$
>  <molecule>
CCc1c(Nc2ccc(C)cc2)nc(N)[nH]c1=O

>  <test target>
SK-MEL-28 melanoma

>  <growth [%]>
101

$$$$
>  <molecule>
CCCNC(=O)Oc1ccc(/C(=C(\C)c2ccccc2)c2ccc(OCCN3CCCCC3)cc2)cc1

>  <test target>
SK-MEL-28 melanoma

>  <growth [%]>
70.5

$$$$
>  <molecule>
Clc1ccc(N2N=C(c3cccc(Nc4ccncc4)c3)CC2c2ccc3c(c2)OCO3)cc1 (stereo not given)

>  <test target>
SK-MEL-28 melanoma

>  <growth [%]>
-12.5

$$$$
>  <molecule>
CC1=CC[C@@H]2CC[C@]3(C)[C@H](CC[C@@H]4[C@@]5(C)CCCNC(C)(C)[C@@H]5CC[C@]43C)[C@H]2[C@@H]1C

>  <test target>
SK-MEL-28 melanoma

>  <growth [%]>
63.7

$$$$
>  <molecule>
CCOC(=O)Oc1c(OC)cc(C(=O)O[C@@H]2C[C@@H]3CN4CCc5c([nH]c6cc(OC)ccc56)[C@H]4C[C@@H]3[C@H](C(=O)OC)[C@H]2OC)cc1OC

>  <test target>
SK-MEL-28 melanoma

>  <growth [%]>
83.2

$$$$
>  <molecule>
CCOC(=O)c1ccc(Nc2ccnc(SCC(=O)c3ccc(C#N)cc3)n2)cc1

>  <test target>
SK-MEL-28 melanoma

>  <growth [%]>
80.8

$$$$
